# Tested on: Fibroblast
# RUN DESCRIPTION: Multiplex assay against human fibroblast
# Format: toxicity, cell-based
# CONDITION DESCRIPTION: 12 h, 1 µM, compound concentration 1 uM, number of replicates 2
Population Mitochondria Different-Phenotype (%) values, listed per item
ATTRIBUTE MEASURED: Population Mitochondria Different-Phenotype (%)

SMILES RECORD: O=C1CCCN1CCNc1nc(Nc2ccc(Cl)c(Cl)c2)ncc1C(F)(F)F
UNIT: %
RECORDED MEASUREMENT: 1
//
SMILES RECORD: COc1cc(N2CCN(C)CC2)ccc1Nc1ncc2c(n1)N(C)c1ccccc1C(=O)N2CC(F)(F)F
UNIT: %
RECORDED MEASUREMENT: 1
//
SMILES RECORD: O=S(=O)(c1ccccc1)N(CC(F)(F)F)c1ccc(C(O)(C(F)(F)F)C(F)(F)F)cc1
UNIT: %
RECORDED MEASUREMENT: 1
//
SMILES RECORD: Fc1cccc(-n2cnc3c(NCc4nc5ccc(F)c(F)c5[nH]4)nc(N4CCOCC4)nc32)c1
UNIT: %
RECORDED MEASUREMENT: 0

Numbers sourced from ChEMBL document CHEMBL5303300.
